// data source = the supplement of paper PMC10126150

- Tested on: ATP;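 also: ATP exposure 15 min at 22 °C before imaging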
- TEST_NAME: switch fluorescence ratio, 500 uM ATP over buffer (Cy3 cluster intensity, sum of 5 cycles each) (fold (ratio)); higher = stronger signal-on switching upon ATP binding; sequences stand for … in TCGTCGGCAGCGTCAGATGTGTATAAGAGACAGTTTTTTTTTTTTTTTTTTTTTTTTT…TC
- CONDITIONS_USED: aptamer strand: ATP DNA aptamer (quencher-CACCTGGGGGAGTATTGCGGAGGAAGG + anchor), 100 nM annealed; ATP concentration: 500 uM
VALUE_KIND: switch fluorescence ratio

* ATTCGCCTAG | 0.987
* CGTTTGAATA | 0.974
* TCAGTCGTGG | 0.993
* AGAGGTTGGG | 0.98
* CGTGTGTTTT | 1
* TTCAGGGGCG | 1.07
* GACTCAGTTG | 0.995
* GGGTGCGGCG | 0.968
* GGCTGGGGCT | 0.973
* TGGGGCTGTG | 0.991
* ATATGGTTGG | 0.958
* AAATCGTTGT | 0.975
* ATCCGGGTGT | 2.74
* TAGGCAACGA | 1.04
* TCGGGAAATT | 1.01
* CGGCAAGAGT | 1.48
* TCATTCAAGG | 1.02
* TTTGGGGGAC | 0.984
* GATCTGGCTT | 0.976
* TATGAGTAAT | 0.987
* ATGTACTTTA | 1.06
* ATTTTCATTG | 0.975
* CGTGGATGTG | 0.989
* GCGATTTCGG | 0.985
* AAAGGAGATT | 0.996
* TGCCATAGG | 1.01
* CGTGCACATT | 0.983
* TTGATACCAG | 0.982
* GTGTAAGAAC | 1.02
* TAGGAGGGGT | 0.999
* TATTTGAAAT | 1.01
* AAAACGATAT | 1.05
* TGGGGCGTCG | 1
* GTTGGTTCTT | 1
* GTGGGGGACG | 0.982
* AATCATCCTC | 1.06
* GGGCCAGTAT | 0.963
* TGTTACGATA | 1.12
* TTGTGGTTGC | 1.02
* GGTACAGGGC | 1.06
* TCCGATGGGT | 1.15
* ATATTAGTTA | 0.997
* CCGGACAGCG | 0.99

====

- Tested on: ATP;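 also: ATP exposure 15 min at 22 °C before imaging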
- TEST_NAME: switch fluorescence ratio, 500 uM ATP over buffer (Cy3 cluster intensity, sum of 5 cycles each) (fold (ratio)); higher = stronger signal-on switching upon ATP binding; sequences stand for … in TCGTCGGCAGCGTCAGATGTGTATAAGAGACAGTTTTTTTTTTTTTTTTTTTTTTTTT…TC
- CONDITIONS_USED: aptamer strand: ATP DNA aptamer (quencher-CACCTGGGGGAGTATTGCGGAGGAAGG + anchor), 100 nM annealed; ATP concentration: 500 uM
Cut-off 1 on switch fluorescence ratio, inclusive. At or above means 1 (yes); below means 0 (no).

* AGTCCGGGAT | 1 (yes)
* AAAAGTACGC | 1 (yes)
* TTCAGGTGGT | 1 (yes)
* AGTTTACTGG | 0 (no)
* AACCGTTCGA | 1 (yes)
* CGAGTAAAAT | 1 (yes)
* AAGCTCCATT | 0 (no)
* AGTATTGTCT | 1 (yes)
* GATTTGGTGT | 1 (yes)
* GTGATAAGCG | 1 (yes)
* TTCCATGAGT | 0 (no)
* CATGTAACGC | 1 (yes)
* GCAATATGTA | 1 (yes)
* CGTGATTAAG | 1 (yes)
* CCGGTTGCTG | 1 (yes)
* CCACTTGGTC | 1 (yes)
* GGCGCATTAT | 1 (yes)
* GCCATCAATA | 1 (yes)

====

- Test system: ATP;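 also: ATP exposure 15 min at 22 °C before imaging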
- TEST_NAME: switch fluorescence ratio, 500 uM ATP over buffer (Cy3 cluster intensity, sum of 5 cycles each) (fold (ratio)); higher = stronger signal-on switching upon ATP binding; sequences stand for … in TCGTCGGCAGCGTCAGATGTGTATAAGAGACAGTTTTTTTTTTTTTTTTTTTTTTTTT…TC
- CONDITIONS_USED: aptamer strand: ATP DNA aptamer (quencher-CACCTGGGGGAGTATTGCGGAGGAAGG + anchor), 100 nM annealed; ATP concentration: 500 uM
VALUE_KIND: switch fluorescence ratio

- TTGACAATGT: 1.03
- GCGGACGGAC: 1.08
- CCACAGGGCA: 1.34
- TCAAGCGAAC: 1.48
- GGGTTTCGAT: 0.984
- GGGTGCAGGC: 0.675
- TGAGGGTTCT: 0.979
- TACTGGCTAA: 1
- AGGTATAAGG: 1.02
- GAAGCCGTTT: 1.01
- TGGAAAGAAG: 1.02
- CCCGCAGTGT: 4.3
- AGGGATCCTA: 0.978
- TTTATATTTC: 0.99
- CAAATATGAG: 0.972
- CGGATTATTT: 0.984
- GAAGTTACGG: 1.11
- AAGGAAGCGT: 0.988
- AGGTAATAGT: 1.03
- TGAGGGGGAC: 1.02
- TCGCGAGGAG: 1.04
- TTTAAGCAGA: 1.04
- ACGGTCCAAG: 1.02
- GAGGGGGATG: 0.979
- ATTTTGCTAA: 0.996
- AAATTTGAAT: 1.01
- CCTCTATTGG: 1.04
- GGGGTTCTGA: 0.974
- AGAAGTTTGG: 0.989
- GACGGGCTGG: 0.989
- GGCCGATGCA: 1.02
- GATTTGGGAC: 1.03
- GCTATTGGGT: 0.95
- TTGTTTAGGA: 0.976
- GCCGGCCGGA: 1.02
- GGGGGAATGT: 0.983
- GGCTTCGGGG: 0.98
- TTGAATGCAT: 0.969
- TTTTTTTTAA: 1.01
- GGTTTAGGAG: 1.01
- TTGGAGGTTT: 1.17
- ATGGTTTTAT: 1.01
- AAGTAGGAGT: 0.994
- GCTAGCTAAG: 1.03
- CAGGGGTTGG: 1.02
- TAAAAACTGG: 0.975
- TTTTCATTAG: 1.03
- ACTATGAGCC: 1.01
- TACGATTTAA: 1.01
- TCTAGGCGTC: 1.07
- ACTTTTTCGG: 0.991
- TTTACAGGGA: 1.03
- TCGGGGCTTT: 0.982
- TAATGGGGGC: 0.994
- TCGGAGGTCA: 0.956
- ATAATAATTT: 1.02
- AATTATCGGC: 0.998
- TGATTCAGTA: 0.974
- GTTAGATTGG: 0.982
- TTATCGGACG: 0.969
- CGAAAATAAT: 0.982
- CTAGGTGACG: 1
- GGGTACTTTT: 1
- TTTTAGGTTT: 1.06
- GGGGGCATGG: 1
- ATGATCAATT: 1.02
- TTTCGAGGAT: 1.01
- AGAATAGGGT: 0.99
- TTTTGCTGGA: 1.02
- CCTCTTCATA: 2.54
- GGATTAGTGC: 1.06
- GGAAGGGGTG: 1.01
- AGTTTACTGT: 1.02
- CAAAAGGGAT: 1.03
- TTGGTACTTT: 0.984
- GTTGGTTACC: 1.01
- TACCTACTCG: 1.18
- TTTGCCGGAG: 1.08
- GTTTTTAATG: 0.969
- GCTGATATCC: 1.01
- CAAATAGGGG: 0.971
- CGATTGGTAC: 1.25
- TGAGTTAAAG: 0.988
- TTAAAAATAC: 1.06
- TAGTATGGCG: 1.04
- GGCCGACAGC: 1.03

====

- System: ATP;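 also: ATP exposure 15 min at 22 °C before imaging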
- TEST_NAME: switch fluorescence ratio, 500 uM ATP over buffer (Cy3 cluster intensity, sum of 5 cycles each) (fold (ratio)); higher = stronger signal-on switching upon ATP binding; sequences stand for … in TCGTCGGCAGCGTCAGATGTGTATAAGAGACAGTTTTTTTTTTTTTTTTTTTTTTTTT…TC
- CONDITIONS_USED: aptamer strand: ATP DNA aptamer (quencher-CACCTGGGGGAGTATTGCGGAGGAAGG + anchor), 100 nM annealed; ATP concentration: 500 uM
Listing of entries alongside the reported switch fluorescence ratio.
VALUE_KIND: switch fluorescence ratio

- GGAAAGGTCG: 1.04
- TGCTTTACAT: 1.03
- TTGCATTGGA: 0.988
- CAGATTGCTC: 0.982
- TCAGGAGTCT: 0.977
- TTTACGGTCA: 1.04
- ATGTTTAGGG: 1.01
- CGTGATATTG: 1.01
- TATAAAACAC: 1.02
- GAGCGTGTGA: 1.02
- TGGGAGCGGT: 0.995
- ATTCATTTAG: 0.996
- ACATGACATG: 1.04
- GCGGTTAGAA: 1.02
- GCGGTTTCGG: 0.994
- TATGTTGCGT: 0.997
- GGCGAAATGG: 1.06
- GATATTTCGT: 0.977
- AAATATTGGG: 0.98
- TTATGGCGCC: 0.986
